Ref: ChEMBL document CHEMBL4627320

tested_system: D(2) dopamine receptor (Homo sapiens)
assay_info: Agonist activity at D2S (unknown origin)
pEC50: −log10 of the molar value.
reported_property: pEC50

molecule="N#Cc1ccc(N2CCN(Cc3ccc(COc4cccc5c4CN(C4CCC(=O)NC4=O)C5=O)cc3)CC2)c(F)c1 (configuration not stated)" censoring_sign=< result_value=5.00
molecule="O=C1CCC(N2Cc3c(OCc4ccc(CN5CCN(c6ccc(F)cc6F)CC5)cc4)cccc3C2=O)C(=O)N1 (racemic)" censoring_sign== result_value=7.80

----------
assay_info: Efflux ratio of permeability across apical to basolateral side in human Caco2 cells
Type: ADME, cell-based
test_parameters: Caco-2
reported_property: efflux ratio

compound="N#Cc1ccc(N2CCN(Cc3ccc(COc4cccc5c4CN([C@H]4CCC(=O)NC4=O)C5=O)cc3)CC2)c(F)c1 [MEZIGDOMIDE]" reported_property="efflux ratio" result_value=1

----------
assay_info: AUC (0 to infinity) in Sprague-Dawley rat at 10 mg/kg, po
Format: ADME, organism-based
Design: dose 10 mg/kg, route oral, time infinity
test_parameters: in vivo
Collected AUC(0-inf) values appear next to each entry.
reported_property: AUC(0-inf) (µM·h)

molecule=N#Cc1ccc(N2CCN(Cc3ccc(COc4cccc5c4CN([C@@H]4CCC(=O)NC4=O)C5=O)cc3)CC2)c(F)c1 reported_property=AUC(0-inf) measurement_units=µM·h result_value=0.5
molecule="N#Cc1ccc(N2CCN(Cc3ccc(COc4cccc5c4CN([C@H]4CCC(=O)NC4=O)C5=O)cc3)CC2)c(F)c1 [MEZIGDOMIDE]" reported_property=AUC(0-inf) measurement_units=µM·h result_value=16.4

----------
assay_info: Antiproliferative activity against lenalidomide-resistant human H929-R10-1 cells incubated for 5 days by CellTiter-Glo assay
Format: functional
test_parameters: 120 h
pIC50: −log10 of the molar value.
Collected pIC50 values appear next to each entry.
reported_property: pIC50

compound="O=C1CCC(N2Cc3c(OCc4ccccc4)cccc3C2=O)C(=O)N1 (stereo not given)" reported_property=pIC50 censoring_sign=< result_value=5.00
compound="CC1(C)CCN(Cc2ccc(COc3cccc4c3CN(C3CCC(=O)NC3=O)C4=O)cc2)CC1 (stereo not given)" reported_property=pIC50 censoring_sign== result_value=8.00
compound="O=C1CCC(N2Cc3c(NCc4ccc(CN5CCN(c6ccc(F)cc6F)CC5)cc4)cccc3C2=O)C(=O)N1 (stereo not given)" reported_property=pIC50 censoring_sign== result_value=7.58
compound="CC1CCN(Cc2ccc(COc3cccc4c3CN(C3CCC(=O)NC3=O)C4=O)cc2)CC1 (stereo not given)" reported_property=pIC50 censoring_sign== result_value=7.45
compound="CC(C)N1CCN(Cc2ccc(COc3cccc4c3CN(C3CCC(=O)NC3=O)C4=O)cc2)CC1 (stereo not given)" reported_property=pIC50 censoring_sign== result_value=7.45

----------
assay_info: Antiproliferative activity against lenalidomide-resistant human H929-R10-1 cells incubated for 5 days by CellTiter-Glo assay
Format: functional
test_parameters: 120 h
pIC50: −log10 of the molar value.
Collected pIC50 values appear next to each entry.
reported_property: pIC50

compound=C[C@]1(N2Cc3c(OCc4ccc(CN5CCN(c6ccc(F)cc6F)CC5)cc4)cccc3C2=O)CCC(=O)NC1=O result_value=6.30
compound="O=C1CCC(N2Cc3c(OCc4ccc(CN5CCN(c6cccc(F)c6)CC5)cc4)cccc3C2=O)C(=O)N1 (configuration not stated)" result_value=8.43
compound="COc1ccc(N2CCN(Cc3ccc(COc4cccc5c4CN(C4CCC(=O)NC4=O)C5=O)cc3)CC2)cc1 (configuration not stated)" result_value=8.15
compound="O=C1CCC(N2Cc3c(OCc4ccc(CN5CCN(c6ccccc6F)CC5)cc4)cccc3C2=O)C(=O)N1 (configuration not stated)" result_value=8.30
compound="CC(C)C1CCN(Cc2ccc(COc3cccc4c3CN(C3CCC(=O)NC3=O)C4=O)cc2)CC1 (configuration not stated)" result_value=8.85
compound="O=C1CCC(N2Cc3c(OCc4ccc(C(=O)N5CCN(c6ccc(F)cc6)CC5)cc4)cccc3C2=O)C(=O)N1 (configuration not stated)" result_value=8.43
compound="O=C1CCC(N2Cc3c(OCc4ccc(C(=O)N5CCN(c6ccc(Cl)cc6)CC5)cc4)cccc3C2=O)C(=O)N1 (configuration not stated)" result_value=8.21
compound="O=C1CCC(N2C(=O)c3cccc(OCc4ccc(CN5CCN(c6ccc(F)cc6)CC5)cc4)c3C2=O)C(=O)N1 (configuration not stated)" result_value=6.84
compound="CN1CCN(Cc2ccc(COc3cccc4c3CN(C3CCC(=O)NC3=O)C4=O)cc2)CC1 (configuration not stated)" result_value=6.29
compound=O=C1CC[C@H](N2Cc3c(OCc4ccc(CN5CCN(c6ccc(F)cc6F)CC5)cc4)cccc3C2=O)C(=O)N1 result_value=8.42
compound="O=C1CCC(N2Cc3c(OCc4ccc(CN5CCN(c6ccc(F)cn6)CC5)cc4)cccc3C2=O)C(=O)N1 (configuration not stated)" result_value=8.13
compound="O=C1CCC(N2Cc3c(OCc4ccc(CN5CCN(c6c(F)cccc6F)CC5)cc4)cccc3C2=O)C(=O)N1 (configuration not stated)" result_value=8.40
compound="O=C1CCC(N2Cc3c(OCc4ccc(CN5CCN(c6ccccn6)CC5)cc4)cccc3C2=O)C(=O)N1 (configuration not stated)" result_value=8.34
compound="O=C1CCC(N2Cc3c(OCc4ccc(CN5CCN(c6ccc(Cl)cc6Cl)CC5)cc4)cccc3C2=O)C(=O)N1 (configuration not stated)" result_value=8.04
compound="O=C1CCC(N2Cc3c(OCc4ccc(CN5CCN(c6ccc(Cl)cc6Cl)CC5=O)cc4)cccc3C2=O)C(=O)N1 (configuration not stated)" result_value=8.17
compound="O=C1CCC(N2C(=O)c3cccc(OCc4ccc(CN5CCN(c6ccc(Cl)cc6Cl)CC5)cc4)c3C2=O)C(=O)N1 (configuration not stated)" result_value=6.77
compound="O=C1CCC(N2Cc3c(OCc4ccc(C(=O)N5CCN(c6ccc(F)cc6F)CC5)cc4)cccc3C2=O)C(=O)N1 (configuration not stated)" result_value=8.31

----------
Collected AUC(0-inf) values appear next to each entry.
assay_info: AUC (0 to infinity) in monkey at 3 mg/kg, po
Assay type: ADME, organism-based, Macaca mulatta
Set-up: dose 3 mg/kg, route oral, time infinity
test_parameters: rhesus monkey, in vivo
reported_property: AUC(0-inf) (µM·h)

compound=N#Cc1ccc(N2CCN(Cc3ccc(COc4cccc5c4CN([C@@H]4CCC(=O)NC4=O)C5=O)cc3)CC2)c(F)c1 reported_property=AUC(0-inf) result_value=0.1
compound="N#Cc1ccc(N2CCN(Cc3ccc(COc4cccc5c4CN([C@H]4CCC(=O)NC4=O)C5=O)cc3)CC2)c(F)c1 [MEZIGDOMIDE]" reported_property=AUC(0-inf) result_value=1.1

----------
Collected pEC50 values appear next to each entry.
tested_system: Protein cereblon/Zinc finger protein Aiolos (Homo sapiens, UniProt Q96SW2+Q9UKT9)
assay_info: Induction of CRBN-mediated pLOC-ePL-tagged aiolos (unknown origin) degradation in human DF15 cells assessed as minimum protein remaining incubated for 4 hrs by luminescence based beta-galactosidase enzyme fragmentation complementation assay
pEC50: −log10 of the molar value.
reported_property: pEC50

molecule=O=C1CC[C@@H](N2Cc3c(OCc4ccc(CN5CCN(c6ccc(F)cc6F)CC5)cc4)cccc3C2=O)C(=O)N1 result_value=9.30
molecule="CC(C)C1CCN(Cc2ccc(COc3cccc4c3CN(C3CCC(=O)NC3=O)C4=O)cc2)CC1 (stereo not drawn)" result_value=10.00
molecule="O=C1CCC(N2Cc3c(OCc4ccc(CN5CCN(c6ccc(Cl)cc6Cl)CC5=O)cc4)cccc3C2=O)C(=O)N1 (stereo not drawn)" result_value=9.22
molecule="O=C1CCC(N2C(=O)c3cccc(OCc4ccc(CN5CCN(c6ccc(Cl)cc6Cl)CC5)cc4)c3C2=O)C(=O)N1 (stereo not drawn)" result_value=8.48
molecule="N#Cc1cccnc1N1CCN(Cc2ccc(COc3cccc4c3CN(C3CCC(=O)NC3=O)C4=O)cc2)CC1 (stereo not drawn)" result_value=9.00
molecule="O=C1CCC(N2Cc3c(OCc4ccccc4)cccc3C2=O)C(=O)N1 (stereo not drawn)" result_value=8.12
molecule="O=C1CCC(N2C(=O)c3cccc(OCc4ccc(CN5CCN(c6ccc(F)cc6)CC5)cc4)c3C2=O)C(=O)N1 (stereo not drawn)" result_value=8.68
molecule="CC(C)N1CCN(Cc2ccc(COc3cccc4c3CN(C3CCC(=O)NC3=O)C4=O)cc2)CC1 (stereo not drawn)" result_value=9.52

----------
Reported IC50 for target or system Protein cereblon/DNA damage-binding protein 1 (Homo sapiens), by entry.
reported_property: IC50

compound="CN1C(=O)CCC(N2Cc3c(OCc4ccc(CN5CCN(c6ccc(F)cc6F)CC5)cc4)cccc3C2=O)C1=O (configuration not stated)" result_value="28000 nM"
compound="O=C1CCC(N2C(=O)c3cccc(OCc4ccc(CN5CCN(c6ccc(Cl)cc6Cl)CC5)cc4)c3C2=O)C(=O)N1 (configuration not stated)" result_value="877 nM"
compound=O=C1CC[C@H](N2Cc3c(OCc4ccc(CN5CCN(c6ccc(F)cc6F)CC5)cc4)cccc3C2=O)C(=O)N1 result_value="37 nM"
compound="O=C1CCC(N2Cc3c(NCc4ccc(CN5CCN(c6ccc(F)cc6F)CC5)cc4)cccc3C2=O)C(=O)N1 (configuration not stated)" result_value="194 nM"
compound="O=C1CCC(N2Cc3c(OCc4ccc(CN5CCN(c6ccc(F)cc6F)CC5)cc4)cccc3C2=O)C(=O)N1 (racemic)" result_value="55.1 to 502 nM"
compound="N#Cc1ccc(N2CCN(Cc3ccc(COc4cccc5c4CN([C@H]4CCC(=O)NC4=O)C5=O)cc3)CC2)c(F)c1 [MEZIGDOMIDE]" result_value="30 nM"
compound=O=C1CC[C@@H](N2Cc3c(OCc4ccc(CN5CCN(c6ccc(F)cc6F)CC5)cc4)cccc3C2=O)C(=O)N1 result_value="1160 nM"
compound=C[C@]1(N2Cc3c(OCc4ccc(CN5CCN(c6ccc(F)cc6F)CC5)cc4)cccc3C2=O)CCC(=O)NC1=O result_value="> 10000 nM"
compound="O=C1CCC(N2C(=O)c3cccc(OCc4ccc(CN5CCN(c6ccc(F)cc6)CC5)cc4)c3C2=O)C(=O)N1 (configuration not stated)" result_value="322 nM"
compound="O=C1CCC(N2C(=O)c3cccc(OCc4ccc(CN5CCN(c6ccc(F)cc6F)CC5)cc4)c3C2=O)C(=O)N1 (configuration not stated)" result_value="502 nM"
compound=N#Cc1ccc(N2CCN(Cc3ccc(COc4cccc5c4CN([C@@H]4CCC(=O)NC4=O)C5=O)cc3)CC2)c(F)c1 result_value="4510 nM"
compound=C[C@@]1(N2Cc3c(OCc4ccc(CN5CCN(c6ccc(F)cc6F)CC5)cc4)cccc3C2=O)CCC(=O)NC1=O result_value="9620 nM"
